- target system: T1, TPP-2202, TWEAKR-ECD-28-80-hIgGFc-His (human)
- T1 construct: also called TWEAKR-Fc fusion protein; full-length ectodomain Fc fusion
- T1 sequence (chain, as listed by the source limits assumed): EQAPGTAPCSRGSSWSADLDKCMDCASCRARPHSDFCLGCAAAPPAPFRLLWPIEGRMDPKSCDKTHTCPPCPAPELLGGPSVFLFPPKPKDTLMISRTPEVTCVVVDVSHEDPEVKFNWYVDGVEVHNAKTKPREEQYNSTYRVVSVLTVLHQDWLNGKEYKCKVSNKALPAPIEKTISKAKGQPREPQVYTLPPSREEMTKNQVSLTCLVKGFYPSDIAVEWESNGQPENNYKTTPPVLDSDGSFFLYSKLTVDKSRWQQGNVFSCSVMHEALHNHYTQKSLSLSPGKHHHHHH
- measurement notes: ELISA: TPP-2202 (TWEAKR 28-80-Fc) coated at 1 µg/ml; biotinylated IgG at 0.08 µg/ml (open bars) and 0.3 µg/ml (solid bars; legend of FIG. 3 prints 0.03); streptavidin-HRP, Amplex Red; Y = signal [Rfu]

binder | binding result
TPP-2090 (antibody, human IgG1, kappa, V domains shown, Human IgG1; biotinylated (biotin-LC-NHS) when used as soluble partner in the ELISAs; also called anti-TWEAKR AK-1) VH: EVQLLESGGGLVQPGGSLRLSCAASGFTFSPYPMIWVRQAPGKGLEWVSYISPSGGSTHYADSVKGRFTISRDNSKNTLYLQMNSLRAEDTAVYYCARGGDTYFDYFDYWGQGTLVTVSS VL: DIQMTQSPSSLSASVGDRVTITCRASQSISGYLNWYQQKPGKAPKLLIYQASSLQSGVPSRFSGSGSGTDFTLTISSLQPEDFATYYCQQSYTSPFITFGQGTKVEIKR | binds
P3G5(TPP-2195) (antibody, mouse IgG2a, kappa, V domains shown, Comparative antibody; murine IgG2a) VH: QVQLQQSGPEVVRPGVSVKISCKGSGYTFTDYGIHWVKQSHAKSLEWIGVISTYNGYTNYNQKFKGKATMTVDKSSSTAYMELARLTSEDSAIYYCARAYYGNLYYAMDYWGQGTSVTVSS VL: DIVLTQSPASLAVSLGQRATISCRANKSVSTSSYSYMHWYQQKPGQPPKLLIKYASNLESGVPARFSGSGSGTDFILNIHPVEEEDAATYYCQHSRELPFTFGSGTKLEIKR | binds
136.1(TPP-2194) (antibody, mouse IgG2a, kappa, V domains shown, Comparative antibody; murine IgG2a) VH: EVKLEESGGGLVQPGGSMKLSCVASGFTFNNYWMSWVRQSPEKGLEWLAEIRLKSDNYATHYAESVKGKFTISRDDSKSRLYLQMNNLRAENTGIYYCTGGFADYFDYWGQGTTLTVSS VL: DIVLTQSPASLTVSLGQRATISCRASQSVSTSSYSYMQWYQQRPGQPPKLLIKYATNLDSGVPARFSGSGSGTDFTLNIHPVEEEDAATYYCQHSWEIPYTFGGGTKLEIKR | binds
P4A8(TPP-1324) (antibody, human IgG1, kappa, V domains shown, Comparative antibody; variable domains from WO2009/140177 with human IgG1 constant region added) VH: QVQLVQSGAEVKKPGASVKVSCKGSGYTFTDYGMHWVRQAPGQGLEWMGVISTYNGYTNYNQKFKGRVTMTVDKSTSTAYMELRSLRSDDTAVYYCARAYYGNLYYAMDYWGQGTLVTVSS VL: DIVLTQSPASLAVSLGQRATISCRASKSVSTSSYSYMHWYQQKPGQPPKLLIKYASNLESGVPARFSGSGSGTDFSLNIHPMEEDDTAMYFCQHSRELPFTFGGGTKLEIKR | binds

Numbers sourced from patent US20160346402A1.
